# assayedTarget: human p38 kinase alpha (Homo sapiens, UniProt Q16539)
# Construct: The coding region of the human p38a cDNA was obtained by PCR-amplification from RNA isolated from the human monocyte cell line THP.1; GST (N); made in house; host or cells: E. coli DH10B
# Sequence (Q16539 whole entry): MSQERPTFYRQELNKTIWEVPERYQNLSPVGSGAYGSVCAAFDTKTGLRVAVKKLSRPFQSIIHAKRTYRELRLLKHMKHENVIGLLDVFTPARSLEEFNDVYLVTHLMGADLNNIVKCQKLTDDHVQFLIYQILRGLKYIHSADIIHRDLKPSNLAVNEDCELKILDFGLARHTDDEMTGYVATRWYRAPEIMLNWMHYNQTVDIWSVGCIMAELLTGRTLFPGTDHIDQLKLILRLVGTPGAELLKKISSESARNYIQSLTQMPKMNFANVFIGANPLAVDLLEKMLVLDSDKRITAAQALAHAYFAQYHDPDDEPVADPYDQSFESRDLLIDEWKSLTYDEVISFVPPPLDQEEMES
# measurementDescription: p38 kinase in vitro assay, phosphorylation of biotinylated PHAS-I with gamma 32P-ATP
# Assay type: biochemical
# runParameters: read-out: P38 alpha kinase IC50
pIC50: −log10 of the molar value.
Respond with t for pIC50 values of 6 and above, f for values below.

In [3]: df
Out[3]:
                                   compound  classification
0  O=S(=O)(NCc1[nH]nc(-c2ccc(F)cc2)c1-c1ccncc1)c1cccc(Cl)c1               f
1  C[C@@H](NC(=O)c1c(Cl)cccc1Cl)c1[nH]nc(-c2ccc(F)cc2)c1-c1ccncc1               t
2  CC(=O)NC(C)c1[nH]nc(-c2ccc(F)cc2)c1-c1ccncc1 (centres unmarked)               t
3  Cn1cnc(S(=O)(=O)NCc2[nH]nc(-c3ccc(F)cc3)c2-c2ccncc2)c1               t
4  O=C(NCc1ccc(S(=O)(=O)NCc2[nH]nc(-c3ccc(F)cc3)c2-c2ccncc2)s1)c1ccccc1               t
5  C[C@@H](NC(N)=O)c1[nH]nc(-c2ccc(F)cc2)c1-c1ccncc1               t

----------
# assayedTarget: human p38 kinase alpha (Homo sapiens, UniProt Q16539)
# Construct: The coding region of the human p38a cDNA was obtained by PCR-amplification from RNA isolated from the human monocyte cell line THP.1; GST (N); made in house; host or cells: E. coli DH10B
# measurementDescription: p38 kinase in vitro assay, phosphorylation of biotinylated PHAS-I with gamma 32P-ATP
# Assay type: biochemical
# runParameters: read-out: P38 alpha kinase IC50
pIC50: −log10 of the molar value.
Note to self: values exactly at 7 are Condition met. So pIC50 at or above 7 is Condition met, below is Condition not met.

                                    molecule     classification
 0  CN1CCC(c2[nH]nc(-c3ccc(Cl)cc3)c2-c2ccncn2)CC1      Condition met
 1  Cc1c(C)c(S(=O)(=O)NCc2[nH]nc(-c3ccc(F)cc3)c2-c2ccncc2)c(C)c2c1OC(C)(C)CC2  Condition not met
 2  CCOC(=O)N[C@H](C)c1[nH]nc(-c2ccc(F)cc2)c1-c1ccncc1      Condition met
 3  C[C@@H](NC(=O)c1ccccc1)c1[nH]nc(-c2ccc(F)cc2)c1-c1ccncc1  Condition not met
 4  CC(C)N[C@H]1CC[C@@H](c2[nH]nc(-c3ccc(Cl)cc3)c2-c2ccncc2)CC1      Condition met
 5  COc1cccc(C(=O)NC(C)c2[nH]nc(-c3ccc(F)cc3)c2-c2ccncc2)c1 (stereo not shown)  Condition not met
 6  CN1CCC(c2[nH]nc(-c3cccc(Cl)c3)c2-c2ccncc2)CC1      Condition met
 7  O=C(NCc1[nH]nc(-c2ccc(F)cc2)c1-c1ccncc1)c1ccc(Cl)cc1Cl  Condition not met
 8  COc1ccc(Cl)cc1S(=O)(=O)N[C@H](C)c1[nH]nc(-c2ccc(F)cc2)c1-c1ccncc1      Condition met
 9  CC(C)C(=O)NCc1[nH]nc(-c2ccc(F)cc2)c1-c1ccncc1  Condition not met
10  C[C@@H](NC(=O)c1ccc(Cl)cc1)c1[nH]nc(-c2ccc(F)cc2)c1-c1ccncc1  Condition not met
11  C[C@@H](NS(=O)(=O)c1c(Cl)cccc1Cl)c1[nH]nc(-c2ccc(F)cc2)c1-c1ccncc1  Condition not met
12  O=C(NCc1[nH]nc(-c2ccc(F)cc2)c1-c1ccncc1)c1ccccn1  Condition not met
13  O=C(NCc1[nH]nc(-c2ccc(F)cc2)c1-c1ccncc1)c1ccc(Cl)cc1  Condition not met
